TESTED_TARGET: DNA dC->dU-editing enzyme APOBEC-3A (Homo sapiens)
PROTOCOL_TEXT: blockers of A3A cytidine deamination on DNA – biochemical, FAM/TAMRA oligo cleavage fluorescence, selectivity assay for APOBEC3G inhibitor project, primary screen (AID 493011);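 note: plate controls were A3A with DMSO for no effect and wells lacking A3A enzyme for full effect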
DETAILS: recombinant A3A, FAM/TAMRA ssDNA deamination fluorescence; at 20 µM; stronger effect = higher value
The campaign covered roughly 330,000 compounds. About 1,400 (0.42%) were called active. Only a selection was taken, and actives are over-represented in it overall.
Give inhibition for every item shown.
Give bare numbers, in %.

In [3]: df
Out[3]:
                                   compound  reported_metric  result_number
0         CCOc1ccc(C)cc1S(=O)(=O)NC1CCCCCC1       inhibition          0.216
1   CCOc1c(OC)cccc1C(=O)NCC1(c2ccccc2)CCCC1       inhibition          -3.19
2     Cc1ccc(C2=C/C(=C\c3cccnc3)C(=O)O2)cc1       inhibition           42.5
3  CCN1C(=NCC(C)C)N[C@@H](CCc2ccccc2)[C@H](C(=O)NCC(C)C)[C@H]1C       inhibition           53.8
4            CNc1ccc([N+](=O)[O-])cc1C(=O)O       inhibition           43.2
5       Cc1ccccc1C1=N/C(=C/c2cccnc2)C(=O)O1       inhibition          -1.12
6        O=C(CNC1CCCCC1)NCC1(c2ccccc2)CCCC1       inhibition           56.4
7  CCN1C(=NCc2ccc(OC)cc2)N[C@@H](CCc2ccccc2)[C@H](C(=O)NCc2ccc(OC)cc2)[C@H]1C       inhibition           49.6
8             CN(C)/C=C1\C=C(c2ccccc2)OC1=O       inhibition          0.636
9  COc1ccc(S(=O)(=O)N2CCCC(C(=O)Nc3ccc(NC(=O)c4ccccn4)cc3)C2)cc1 (centres undefined)       inhibition          0.311

For every item in the list below, what is its measured inhibition?
1. O=C(CCC1CCCCC1)Nc1cc(C(F)(F)F)ccc1N1CCOCC1
2. CCN(CC)c1ccc([N+](=O)[O-])cc1C(=O)O
3. CCC(=O)N(CCc1ccccc1)Cc1cc2cc(C)ccc2[nH]c1=O
4. CC(=O)Nc1ccc(S(=O)(=O)Oc2ccc(/C=N/N=C3/NC(=O)C(CC(=O)O)S3)cc2)cc1 (centres undefined)

Key:
1.06
3.17
-6.3
-1.33

====

TESTED_TARGET: DNA dC->dU-editing enzyme APOBEC-3A (Homo sapiens) (UniProt P31941)
Sequence (P31941 whole entry, looked up): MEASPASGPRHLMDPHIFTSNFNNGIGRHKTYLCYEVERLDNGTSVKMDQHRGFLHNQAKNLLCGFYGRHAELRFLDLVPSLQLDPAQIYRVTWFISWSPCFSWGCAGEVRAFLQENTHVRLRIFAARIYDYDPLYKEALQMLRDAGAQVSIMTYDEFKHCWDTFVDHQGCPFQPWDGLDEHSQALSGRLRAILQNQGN
PROTOCOL_TEXT: blockers of A3A cytidine deamination on DNA – biochemical, FAM/TAMRA oligo cleavage fluorescence, selectivity assay for APOBEC3G inhibitor project, primary screen (AID 493011);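 note: plate controls were A3A with DMSO for no effect and wells lacking A3A enzyme for full effect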
DETAILS: recombinant A3A, FAM/TAMRA ssDNA deamination fluorescence; at 20 µM; stronger effect = higher value
Among all 330,000 compounds or so, about 1,400 (0.42%) were called active. Many of the other results were omitted from the sample, so actives are more common in it than they were.
REPORTED_METRIC: inhibition (%)
Answers are plain numbers, in %.

>>> df
                                   compound                             tested_target  result_number
0  COc1ccccc1-c1noc(CSc2nc(C)cc(=O)[nH]2)n1  DNA dC->dU-editing enzyme APOBEC-3A (Homo sapiens) (UniProt P31941)           53.2
1                 COC(=O)C[n+]1cccc2ccccc21  DNA dC->dU-editing enzyme APOBEC-3A (Homo sapiens) (UniProt P31941)           67.3
2  C/C=C(/C)C(=O)OC1Cc2c(ccc3ccc(=O)oc23)OC1(C)C (stereo not drawn)  DNA dC->dU-editing enzyme APOBEC-3A (Homo sapiens) (UniProt P31941)          -4.35

For every item in the list below, what is its measured inhibition?
1. N#Cc1ccsc1NC(=O)CN1CCCCC1
2. Cc1cnc(C(=O)OCC(=O)NCCCc2ccccc2)cn1
3. CCCCNC(=O)N1CCCC(N(C)CCc2ccc(OC)c(OC)c2)C1 (stereo not drawn)
4. N#Cc1ccsc1NC(=O)CN1CCN(S(=O)(=O)c2cc(Cl)ccc2Cl)CC1
5. COc1ccccc1CCNC(=O)C1CCN(C(=O)/C=C/c2ccccc2)CC1

Key:
1. -2.27
2. -5.14
3. -3.11
4. 40.6
5. 40.4

The reported numbers originate from PubChem BioAssay AID493011.
